experiment: chemical genetic growth profiling, strain panel (AID 1159580);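 note: tested at 20 µM; growth read once vehicle control cultures reached saturation at 30 °C; 1 = growth at the plate median or of vehicle wells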; settings: S. cerevisiae deletion strains, growth OD, locus YML124C, strain tub3, stronger effect = lower value
The campaign covered roughly 5,500 compounds. About 2,000 (36%) were called active. Another 18% or so got no clear call; they are omitted. The list shows a part of the results.
endpoint-label: normalized growth
Lab note: jot down the number only; don't add units.

Record excerpt, results attached:
>  <compound>
COc1cc(C)c2c(c1C=O)Oc1c(c(C)c(O)c3c1C(O)OC3=O)OC2=O (configuration not stated)

>  <normalized growth>
0.996

$$$$
>  <compound>
COc1ccc(-c2cc(C(F)F)nn2-c2ccc(S(N)(=O)=O)cc2)cc1F

>  <normalized growth>
1.01

$$$$
>  <compound>
O=C(O)CCCCCCCCCCCCC1C=CCC1 (configuration not stated)

>  <normalized growth>
0.998

$$$$

// lookup normalized growth for CC1(C)CC2C1CCC1(C)OC1CCC2(C)O (configuration not stated) 0.999

// lookup normalized growth for CCC(CCC(C)C1CCC2C3CC=C4C[C@@H](OC(C)=O)CC[C@]4(C)C3CC[C@]12C)C(C)C (some centres not stated) 0.98

// lookup normalized growth for CC1CC2C(C(O)CC3(C)C2CCC3(O)C(=O)COC(=O)CCC(=O)O)C2(C)C=CC(=O)C=C12 (configuration not stated) 0.987

* * *

Quick list: normalized growth per entry.
assay: chemical genetic growth profiling, strain panel (AID 1159580);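 note: tested at 20 µM; growth read once vehicle control cultures reached saturation at 30 °C; 1 = growth at the plate median or of vehicle wells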; settings: S. cerevisiae deletion strains, growth OD, locus YNR052C, strain pop2, stronger effect = lower value
Screen size: about 5,500 compounds; about 2,000 (36%) were called active. Not shown: some 18% with an inconclusive outcome. The list shows a part of the results.
Lab note: jot down the number only; don't add units.

>  <compound>
CCOP(=S)(OCC)SCSCC

>  <measured-value>
1.01

$$$$

Please examine the following record next.
// lookup normalized growth for CCCSP(=O)(OCC)SCCC 0.971

* * *

Quick list: normalized growth per entry.
assay: chemical genetic growth profiling, strain panel (AID 1159580);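 note: tested at 20 µM; growth read once vehicle control cultures reached saturation at 30 °C; 1 = growth at the plate median or of vehicle wells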; conditions: S. cerevisiae deletion strains, growth OD, locus YIL125W, strain kgd1, stronger effect = lower value
About 2,000 (36%) of roughly 5,500 compounds were called active. Not shown: some 18% with an inconclusive outcome. This is one part of the list.
Lab note: jot down the number only; don't add units.

>  <molecule>
COc1cc(O)cc(/C=C/c2ccccc2)c1

>  <normalized growth>
0.94

$$$$
>  <molecule>
CC(COc1ccccc1)N(CCCl)Cc1ccccc1 (stereo not given)

>  <normalized growth>
1.01

$$$$
>  <molecule>
CCCSP(=O)(OCC)SCCC

>  <normalized growth>
0.987

$$$$
>  <molecule>
NCc1ccc(S(N)(=O)=O)cc1

>  <normalized growth>
0.983

$$$$

// lookup normalized growth for CO[C@@H]1C[C@@H](C[C@H]2CC[C@H](C)[C@H]([C@@H](C)C(=O)O)O2)O[C@]2(O[C@](C)([C@H]3CC[C@@](C)(C4O[C@@H](C5O[C@@](O)(CO)[C@H](C)C[C@@H]5C)C[C@@H]4C)O3)C[C@H]2C)[C@@H]1C (stereo not given in full) 0.982

* * *

experiment: chemical genetic growth profiling, strain panel (AID 1159580);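 note: tested at 20 µM; growth read once vehicle control cultures reached saturation at 30 °C; 1 = growth at the plate median or of vehicle wells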; settings: S. cerevisiae deletion strains, growth OD, locus YDR137W, strain rgp1
Out of some 5,500 compounds screened, about 2,000 (36%) were called active. Roughly 18% stayed inconclusive and do not appear here. No stated cut-off is given here; in the data, active means normalized growth mostly below about 0.91 (no sharp cut-off); inconclusive means no clear call, values can overlap the other calls; inactive means mostly above about 0.92. This is one part of the list.
Give your call using only these classes: active, inactive

>  <compound>
O=c1cccc2n1C[C@H]1CNCC2C1

>  <discrete-label>
inactive

$$$$
>  <compound>
NC(=O)c1cnccn1

>  <discrete-label>
inactive

$$$$
>  <compound>
CC12CCC3C(CC=C4CC(O)CCC43C)C1CCC2=O (stereo not drawn)

>  <discrete-label>
active

$$$$
>  <compound>
CC[C@]12CCCN3CCc4c(n(c5ccccc45)[C@](O)(C(=O)OC)C1)[C@@H]32

>  <discrete-label>
inactive

$$$$

Please share the test call associated with O=C1CN(/N=C\c2ccc([N+](=O)[O-])o2)C(=O)N1 . inactive

Please share the test call associated with O=C(O)P(=O)(O)O . inactive

Please share the test call associated with C#C[C@]1(O)CCC2C3CCc4cc(OC)ccc4C3CC[C@@]21C (stereo partly drawn) . active

Please share the test call associated with CCOc1ccc2c(c1)C(C)=CC(C)(C)N2 . inactive
